- assay summary: NCI Yeast Anticancer Drug Screen. Data for the sgs1 mgt1 strain (AID 161)
- protocol conditions: S. cerevisiae sgs1 mgt1 strain, at 5.0 µM (retest, dose inferred, filed as 0.5)
The panel holds about 79,000 compounds, 15% with a hit somewhere; the sample as a whole holds those more often. Calls of active or inactive are those of the source. Cut-off read from the data, not from the text of the source: active = growth inhibition above about 70%; inactive = the rest.
Respond with a class label; see active, inactive

## Input Outcome logged for Nc1cccc2cccc([N+](=O)[O-])c12 in this assay:
## Output inactive

Consider the additional compound presented here.
## Input // param item: COc1cccc2c1C(=O)c1c(O)c3c(c(O)c1C2=O)C[C@@](O)(C(=O)CO)C[C@@H]3OC1CC(OC(C)=O)C(OC(C)=O)C(C)O1 (stereo not given in full) ; yields the recorded call
## Output inactive
